Where do the numbers come from? From paper PMC11077067.

- experimental_target: T1, Znf706 (Homo sapiens, UniProt Q9Y5V0 1-76)
- T1 sequence: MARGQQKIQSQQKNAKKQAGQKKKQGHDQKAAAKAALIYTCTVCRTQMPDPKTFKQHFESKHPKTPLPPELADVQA
- measurement_protocol: MST; range over all G4s; strong; exact value in figure; FP/anisotropy: 20 mM NaPi, 100 mM KCl, 0.05% NaN3, pH 7.4, 25 C (LiCl variant: 20 mM Tris-HCl, 100 mM LiCl, pH 7.4; NaCl variant: 20 mM NaPi, 100 mM NaCl, pH 7.4); NMR: 20 mM NaPi, 100 mM KCl, 7.5% D2O, pH 7.4, 4-50 C
- condition_context: protein: recombinant; tags: none (His6-SUMO cleaved); chain copies: 2; label: 5' 6-FAM; parallel G4
pKd: −log10 of the molar value.
quantity_kind: pKd

* UAGGGUUAGGGUUAGGGUUAGGG (structured_RNA) [TERRA, 6-FAM] | ~5.35
